System: HCC-2998 colon
Assay protocol: NCI tumour cell line growth inhibition, 48 h
The entries below are paired with their reported TGI.

Compound | Operator symbol | TGI, µM
C[C@]12CCC(=O)C=C1CC[C@@H]1[C@@H]2CC[C@]2(C)C(=O)/C(=C/c3ccncc3)C[C@@H]12 | = | 30.9
COc1ccc(-c2c(-c3cc4c(c(OC)c3OC)OCO4)noc2N)cc1 | = | 6.96
COc1ccc(-c2cc(=O)c3c(OC)c(O)c(OC)cc3o2)cc1 | > | 100
CCCCCCCCCCCCCCC(C(=O)[O-])[n+]1ccccc1 (stereo not given) | > | 100
C/C(=N\N)C(CN1CCCCC1)C(c1ccccc1)c1c(O)c2ccccc2oc1=O (stereo not given) | > | 100

###

Tested on: HL-60(TB) leukemia
Assay protocol: NCI tumour cell line growth inhibition, 48 h
The entries below are paired with their reported TGI.

Molecule | TGI
Cc1cc(N(CCC#N)CCC#N)ccc1/C=C(\NC(=O)/C=C/c1ccccc1)NC(=O)Nc1ccccc1C | > 100 µM
COc1cc(C(=O)O)cc2c1[nH]c1ccccc12 | > 25 µM
Clc1cc(Cl)cc(C2SCc3nc4ccccc4n32)c1 (stereo unspecified) | 53.4 µM
Nc1nc2ccccc2c2[nH]c3ccccc3c12 | 5.73 µM
[N-]=[N+]=CC(=O)OC1CCc2ccccc21 (stereo unspecified) | > 100 µM
Nc1c(C(=O)c2cccc(C(O)(CO)CO)c2)cnn1-c1ccc(F)cc1 | > 25 µM

###

The entries below are paired with their reported TGI.
Tested on: T-47D breast
Assay protocol: NCI tumour cell line growth inhibition, 48 h
Reported property: TGI

Compound | Study target | Reported property | Meas value
Cn1cc(S(=O)(=O)NC(=O)Nc2ccc(Cl)cc2)c(=O)c2ccc(Cl)cc21 | T-47D breast | TGI | > 100 µM
C=C(c1ccc(OC)c(/C=C/C(=O)c2cc(OC)c(OC)c(OC)c2)c1)c1cc(OC)c(OC)c(OC)c1 | T-47D breast | TGI | 6.12 µM
COc1ccc(C(=O)OC2C(OC3C(O)COC(O[C@H]4C[C@H]5[C@@H]6CC=C7C[C@@H](O)CC[C@]7(C)[C@H]6CC[C@]5(C)[C@H]4[C@H](C)C(=O)CCC(C)C)C3OC(=O)C(C)C)OCC(O)C2O)cc1 (stereo partly drawn) | T-47D breast | TGI | 3.08 µM
O=[N+]([O-])c1ccc(CSc2c3ccccc3nc3ccccc23)cc1 | T-47D breast | TGI | 4.18 µM
O=c1[nH]c(=S)n(-c2cccc3ccccc23)c(O)c1/C=C1\C=Nc2ccccc21 | T-47D breast | TGI | 19.3 µM
O=C(O)c1[nH]c(=O)[nH]c(=O)c1CN1CCCCC1 | T-47D breast | TGI | > 100 µM
CC(SC(=S)N(C)C)C(=O)Nc1nnc(-c2ccc(Cl)cc2)o1 (stereo not drawn) | T-47D breast | TGI | > 100 µM
C=C1CC(COc2ccc3c(C)c(Cl)c(=O)oc3c2)(c2ccccc2)OC1=O (stereo not drawn) | T-47D breast | TGI | 4.15 µM
Cn1c(=O)c2c(nc(N3CCOCC3)n2CCCNCC(O)c2ccc(O)c(O)c2)n(C)c1=O (stereo not drawn) | T-47D breast | TGI | > 100 µM
CSc1ccc(/C=C/C(=O)c2nc3ccccc3[nH]2)cc1 | T-47D breast | TGI | 29.7 µM
CCCCCCCCCCCCCCCCOP(=O)(O)OP(=O)(O)OCC1OC(n2cnc3c(N)ncnc32)C(O)C1O (stereo not drawn) | T-47D breast | TGI | > 100 µM
CCOc1cc(/C=N\O)cc(/C=N/O)c1O | T-47D breast | TGI | 93.8 µM
Nc1nc(N)c2c(CCc3ccc(C(=O)N[C@@H](CCC(=O)O)C(=O)O)cc3)ccnc2n1 | T-47D breast | TGI | > 100 µM
N=C(N)c1ccc(CS(=O)(=O)F)cc1 | T-47D breast | TGI | > 100 µM
C=CC(C)CCC(C/C=C(\C)CCCC(C)C)C(=C)CCCC(C)C (stereo not drawn) | T-47D breast | TGI | > 100 µM
CCC1CCC2C3CC=C4CC(OC(C)=O)C(N)CC4(C)C3CCC12C (stereo not drawn) | T-47D breast | TGI | 12.6 µM
Cc1cc(C)c(-n2c(C)c(C)c(C#N)c2N)c(C)c1 | T-47D breast | TGI | > 100 µM
NNC(=O)CC(=O)Nc1ccccc1Cl | T-47D breast | TGI | > 100 µM
Oc1ccccc1/C=N/Nc1nc2ccccc2s1 | T-47D breast | TGI | > 100 µM
CC(C)C(C)C(O)C(O)C(C)C1CCC2C3COC(=O)C4CC(O)C(O)CC4(C)C3CCC12C (stereo not drawn) | T-47D breast | TGI | > 100 µM
C/C(=N\N)C(CN1CCCCC1)C(c1ccccc1)c1c(O)c2ccccc2oc1=O (stereo not drawn) | T-47D breast | TGI | > 100 µM
Cc1nnc(N2C(=O)C(=Cc3ccc(Cl)cc3)N=C2c2ccc(Cl)cc2)nc1/C=C\c1ccc(N(C)C)cc1 | T-47D breast | TGI | > 100 µM
O=C1C2=C(C(=O)c3c(O)ccc(O)c31)N(c1cccnc1)Cc1ccccc1O2 | T-47D breast | TGI | 0.635 µM

###

System: SK-MEL-5 melanoma
Assay protocol: NCI tumour cell line growth inhibition, 48 h
The entries below are paired with their reported TGI.

Compound | Study target | Operator symbol | TGI, µM
COc1cccc(-c2cc(=O)c3cc(C)c(C)c(C(=O)O)c3o2)c1 | SK-MEL-5 melanoma | > | 100
Cc1ccc(C(=O)Nc2ccc(CN3CCN(C)CC3)c(C(F)(F)F)c2)cc1C#Cc1cnc(N)c2ccc(C#N)cc12 | SK-MEL-5 melanoma | = | 6.1
COC(=O)c1ccc(CS(=O)(=O)c2ccccc2)cc1 | SK-MEL-5 melanoma | > | 100
COc1ccc(C(=O)OC2C(OC3C(O)COC(O[C@H]4C[C@H]5[C@@H]6CC=C7C[C@@H](O)CC[C@]7(C)[C@H]6CC[C@]5(C)[C@H]4[C@H](C)C(=O)CCC(C)C)C3OC(=O)C(C)C)OCC(O)C2O)cc1 (some centres undefined) | SK-MEL-5 melanoma | = | 0.36

###

System: DLD-1 colon
Assay protocol: NCI tumour cell line growth inhibition, 48 h
The entries below are paired with their reported TGI.

Compound | Study target | TGI
Cc1cccc(NC(N)=S)c1 | DLD-1 colon | > 100 µM
C=C(c1ccccc1)[C@@]1(O)CCCC[C@H]1NC(c1ccccc1)c1ccccc1 | DLD-1 colon | 31.9 µM
Cc1cc(Cl)ccc1NC(=O)C1C(=O)C(=O)N(c2ccc(Cl)cc2C)C1=O (centres undefined) | DLD-1 colon | > 100 µM
C/C(=N\NC(=O)C[n+]1ccccc1)c1sc(-c2nc(C)c(/C(C)=N/NC(=O)C[n+]3ccccc3)s2)nc1C | DLD-1 colon | > 100 µM
NC(CCCNc1ccc(O)cc1)C(=O)O (centres undefined) | DLD-1 colon | 42.6 µM
CCOc1cccc2sc(N)nc12 | DLD-1 colon | > 100 µM
O=C1C[C@@H]2[C@@H](C=CC23CC3)N1O | DLD-1 colon | > 100 µM
CC(=O)O[C@H]1CC[C@@]2(C)C(=CC[C@@H]3C2CC[C@]2(C)C(=O)NC(=O)CC32)C1 (some centres undefined) | DLD-1 colon | > 100 µM
COc1ccc(/C=C/C(=O)c2c(-c3ccccc3)nn(C)c(=O)c2N2CCCC2)cc1 | DLD-1 colon | > 100 µM
COC(=O)CCC(=O)Nc1cccc(C(F)(F)F)c1 | DLD-1 colon | > 100 µM
Cc1ccc([N+]2=NC(c3ccc([N+](=O)[O-])cc3)=NN(c3ccccc3)C2)cc1 | DLD-1 colon | > 100 µM
Clc1cc2nc[nH]c2cc1Cl | DLD-1 colon | > 100 µM
CN(C)CCNC(=O)c1ccccc1Nc1c(Cl)cccc1Cl | DLD-1 colon | 37.1 µM
CN1C(=O)C(C)(C)NS1(=O)=O | DLD-1 colon | > 100 µM
CS(=O)(=O)OCCCCOS(C)(=O)=O | DLD-1 colon | > 236 µM
CC1(OCc2ccccc2)C(=O)N2C1N(C(=O)OCc1ccccc1)CC2(C)C (centres undefined) | DLD-1 colon | > 100 µM
CCOC(=O)NC(=O)c1cn(CC(=O)NCC(=O)NCC(=O)N2CCN(CCn3c(C)nc(C(N)=O)c3N)CC2)c(=O)[nH]c1=O | DLD-1 colon | > 100 µM
SCc1ccc(-c2ccc(CS)cc2)cc1 | DLD-1 colon | 34.1 µM
COc1cccc(-c2cc(C(=O)Nc3ccc(Cl)cc3)nc(N)n2)c1 | DLD-1 colon | > 100 µM
